Biological target: T1, Furin (recombinant, truncated) (mouse), P23188
T1 chain: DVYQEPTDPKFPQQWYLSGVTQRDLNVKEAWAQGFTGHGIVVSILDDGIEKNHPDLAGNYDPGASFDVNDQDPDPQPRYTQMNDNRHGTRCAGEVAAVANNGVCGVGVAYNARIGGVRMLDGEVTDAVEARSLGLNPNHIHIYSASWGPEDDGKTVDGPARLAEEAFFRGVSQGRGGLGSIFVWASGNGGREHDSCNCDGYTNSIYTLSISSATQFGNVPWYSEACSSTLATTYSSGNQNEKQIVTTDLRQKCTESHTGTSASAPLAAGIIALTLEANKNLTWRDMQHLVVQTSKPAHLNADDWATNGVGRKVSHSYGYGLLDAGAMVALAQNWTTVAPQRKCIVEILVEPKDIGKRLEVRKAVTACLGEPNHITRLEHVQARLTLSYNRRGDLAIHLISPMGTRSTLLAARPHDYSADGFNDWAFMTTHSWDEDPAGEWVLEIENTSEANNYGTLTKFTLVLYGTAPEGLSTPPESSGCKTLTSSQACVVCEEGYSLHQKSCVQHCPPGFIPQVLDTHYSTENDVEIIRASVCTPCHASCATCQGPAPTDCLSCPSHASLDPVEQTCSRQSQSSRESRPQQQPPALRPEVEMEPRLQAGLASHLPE
Details: modification not given
No end group written: not given here.
measurementName: Ki (µM)

> print(dat)
                  binder  measureunit  numericvalue
1  Ac-LLRVKR [Ac-LLRVKR]           µM           3.5
